Listed below: Emax values for each entry.
- targetOrTestSystem: Urotensin-2 receptor (Rattus norvegicus)
- assayText: Agonist activity at urotensin 2 receptor in Sprague-Dawley rat thoracic aortic ring assessed as induction of contraction relative to urotensin-2
Could you give me the number in %? Just the number is fine.

Given item `CC(C)[C@H](NC(=O)[C@@H]1CSSC[C@H](NC(=O)[C@H](CC(=O)O)NC(=O)[C@@H]2CCCN2C(=O)[C@@H](NC(=O)[C@@H](N)CCC(=O)O)[C@@H](C)O)C(=O)N[C@@H](Cc2ccccc2)C(=O)N[C@@H](Cc2c[nH]c3ccccc23)C(=O)N[C@@H](CCCCN)C(=O)N[C@@H](Cc2ccc(O)cc2)C(=O)N1C)C(=O)O` , the value recorded as its Emax is 105

Read the next record carefully.
Given item `CC(C)[C@H](NC(=O)[C@@H]1CSSC[C@H](N(C)C(=O)[C@H](C)N)C(=O)N[C@@H](Cc2ccccc2)C(=O)N[C@@H](Cc2c[nH]c3ccccc23)C(=O)N[C@@H](CCCCN)C(=O)N[C@@H](Cc2ccc(O)cc2)C(=O)N1)C(=O)O` , the value recorded as its Emax is 110

----------
Listed below: EC50 values for each entry.
- targetOrTestSystem: Urotensin-2 receptor (Rattus norvegicus)
- assayText: Agonist activity at urotensin 2 receptor in Sprague-Dawley rat thoracic aortic ring assessed as induction of contraction relative to KCl-induced contraction
Bridge positions count the residues as written; N and C are the ends. Square brackets hold non-standard residues; d marks the D form. Peptide text beside a SMILES is read from it. NMeF = CN[C@@H](Cc1ccccc1)C(=O)O
Could you give me the number in nM? Just the number is fine.

Previously resolved entries follow.
Given item `CC(C)[C@H](NC(=O)[C@@H]1CSSC[C@H](NC(=O)[C@H](CC(=O)O)NC(=O)[C@@H]2CCCN2C(=O)[C@@H](NC(=O)[C@@H](N)CCC(=O)O)[C@@H](C)O)C(=O)N(C)[C@@H](Cc2ccccc2)C(=O)N[C@@H](Cc2c[nH]c3ccccc23)C(=O)N[C@@H](CCCCN)C(=O)N[C@@H](Cc2ccc(O)cc2)C(=O)N1)C(=O)O` , the value recorded as its EC50 is 200

Given item `CC(C)[C@H](NC(=O)[C@@H]1CSSC[C@H](NC(=O)[C@H](CC(=O)O)NC(=O)[C@@H]2CCCN2C(=O)[C@@H](NC(=O)[C@@H](N)CCC(=O)O)[C@@H](C)O)C(=O)N[C@@H](Cc2ccccc2)C(=O)N[C@@H](Cc2c[nH]c3ccccc23)C(=O)N[C@@H](CCCCN)C(=O)N[C@@H](Cc2ccc(O)cc2)C(=O)N1)C(=O)O` , the value recorded as its EC50 is 3.02

Read the next record carefully.
Given item CC(C)[C@H](NC(=O)[C@@H]1CSSC[C@H](NC(=O)[C@@H](N)CC(=O)O)C(=O)N(C)[C@@H](Cc2ccccc2)C(=O)N[C@@H](Cc2c[nH]c3ccccc23)C(=O)N[C@@H](CCCCN)C(=O)N[C@@H](Cc2ccc(O)cc2)C(=O)N1)C(=O)O (H-DC[NMeF]WKYCV-OH; disulfide 2-7) , the value recorded as its EC50 is 537

----------
- targetOrTestSystem: Urotensin-2 receptor (Rattus norvegicus)
- assayText: Agonist activity at urotensin 2 receptor in Sprague-Dawley rat thoracic aortic ring assessed as induction of contraction relative to KCl-induced contraction
Bridge positions count the residues as written; N and C are the ends. Peptide text beside a SMILES is read from it.
measuredParameter: EC50 (nM)
Could you give me the number in nM? Just the number is fine.

Given item `CC(C)[C@H](NC(=O)[C@@H]1CSSC[C@H](NC(=O)[C@H](CC(=O)O)NC(=O)[C@@H]2CCCN2C(=O)[C@@H](NC(=O)[C@@H](N)CCC(=O)O)[C@@H](C)O)C(=O)N[C@@H](Cc2ccccc2)C(=O)N(C)[C@@H](Cc2c[nH]c3ccccc23)C(=O)N[C@@H](CCCCN)C(=O)N[C@@H](Cc2ccc(O)cc2)C(=O)N1)C(=O)O` , the value recorded as its EC50 is 5.75

Continuing:
Given item `CC(C)[C@H](NC(=O)[C@@H]1CSSC[C@H](NC(=O)[C@H](C)N)C(=O)N[C@@H](Cc2ccccc2)C(=O)N[C@@H](Cc2c[nH]c3ccccc23)C(=O)N[C@@H](CCCCN)C(=O)N[C@@H](Cc2ccc(O)cc2)C(=O)N1)C(=O)O` , the value recorded as its EC50 is 7.76

Given item `CC(C)[C@H](NC(=O)[C@@H]1CSSC[C@H](N(C)C(=O)[C@H](CC(=O)O)NC(=O)[C@@H]2CCCN2C(=O)[C@@H](NC(=O)[C@@H](N)CCC(=O)O)[C@@H](C)O)C(=O)N[C@@H](Cc2ccccc2)C(=O)N[C@@H](Cc2c[nH]c3ccccc23)C(=O)N[C@@H](CCCCN)C(=O)N[C@@H](Cc2ccc(O)cc2)C(=O)N1)C(=O)O` , the value recorded as its EC50 is 9.77

Given item CC(C)[C@H](NC(=O)[C@@H]1CSSC[C@H](NC(=O)[C@@H](N)CC(=O)O)C(=O)N[C@@H](Cc2ccccc2)C(=O)N[C@@H](Cc2c[nH]c3ccccc23)C(=O)N[C@@H](CCCCN)C(=O)N[C@@H](Cc2ccc(O)cc2)C(=O)N1)C(=O)O (H-DCFWKYCV-OH; disulfide 2-7) , the value recorded as its EC50 is 5.25

----------
- targetOrTestSystem: Urotensin-2 receptor (Homo sapiens)
- Sequence (Q9UKP6 whole entry): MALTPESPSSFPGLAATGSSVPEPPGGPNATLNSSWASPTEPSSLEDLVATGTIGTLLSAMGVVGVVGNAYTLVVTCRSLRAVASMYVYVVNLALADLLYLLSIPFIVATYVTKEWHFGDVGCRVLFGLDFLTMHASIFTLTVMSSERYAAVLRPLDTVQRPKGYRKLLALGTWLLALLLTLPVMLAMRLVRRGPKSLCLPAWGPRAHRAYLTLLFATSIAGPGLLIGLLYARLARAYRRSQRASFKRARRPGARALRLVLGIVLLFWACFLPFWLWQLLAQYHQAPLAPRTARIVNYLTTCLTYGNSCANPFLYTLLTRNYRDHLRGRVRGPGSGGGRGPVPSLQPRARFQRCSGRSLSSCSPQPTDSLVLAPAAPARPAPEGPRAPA
measuredParameter: Ki (nM)

A: CC(C)[C@H](NC(=O)[C@@H]1CSSC[C@H](N(C)C(=O)[C@H](C)N)C(=O)N[C@@H](Cc2ccccc2)C(=O)N[C@@H](Cc2c[nH]c3ccccc23)C(=O)N[C@@H](CCCCN)C(=O)N[C@@H](Cc2ccc(O)cc2)C(=O)N1)C(=O)O
B: CC(C)[C@H](NC(=O)[C@@H]1CSSC[C@H](NC(=O)[C@H](C)N)C(=O)N[C@@H](Cc2ccccc2)C(=O)N[C@@H](Cc2c[nH]c3ccccc23)C(=O)N[C@@H](CCCCN)C(=O)N[C@@H](Cc2ccc(O)cc2)C(=O)N1C)C(=O)O
Between A and B , which one shows the larger Ki value? Selection: enter the item's label. B
(B: 3.55 nM, A: 1.74 nM)

----------
- targetOrTestSystem: Urotensin-2 receptor (Rattus norvegicus)
- Sequence (whole entry): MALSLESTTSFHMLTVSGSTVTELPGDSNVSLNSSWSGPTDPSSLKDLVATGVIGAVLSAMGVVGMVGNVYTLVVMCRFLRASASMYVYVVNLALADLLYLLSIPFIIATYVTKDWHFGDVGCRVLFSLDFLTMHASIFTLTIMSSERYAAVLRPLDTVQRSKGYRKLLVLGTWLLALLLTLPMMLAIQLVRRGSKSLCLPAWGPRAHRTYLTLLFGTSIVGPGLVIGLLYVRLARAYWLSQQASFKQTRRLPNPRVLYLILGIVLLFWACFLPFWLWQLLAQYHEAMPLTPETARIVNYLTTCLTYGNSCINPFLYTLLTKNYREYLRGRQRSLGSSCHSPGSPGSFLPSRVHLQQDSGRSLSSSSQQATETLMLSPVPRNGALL
- assayText: Agonist activity at urotensin 2 receptor in Sprague-Dawley rat thoracic aortic ring assessed as induction of contraction at 10 uM relative to KCl-induced contraction
Bridge positions count the residues as written; N and C are the ends. Square brackets hold non-standard residues; d marks the D form. Peptide text beside a SMILES is read from it. NMeY = CN[C@@H](Cc1ccc(O)cc1)C(=O)O; NMeK = CN[C@@H](CCCCN)C(=O)O
measuredParameter: Activity (%)

Previously resolved entries follow.
Given item CC(C)[C@H](NC(=O)[C@@H]1CSSC[C@H](NC(=O)[C@@H](N)CC(=O)O)C(=O)N[C@@H](Cc2ccccc2)C(=O)N[C@@H](Cc2c[nH]c3ccccc23)C(=O)N[C@@H](CCCCN)C(=O)N(C)[C@@H](Cc2ccc(O)cc2)C(=O)N1)C(=O)O (H-DCFWK[NMeY]CV-OH; disulfide 2-7) , the value recorded as its Activity is 44

Given item CC(C)[C@H](NC(=O)[C@@H]1CSSC[C@H](NC(=O)[C@@H](N)CC(=O)O)C(=O)N[C@@H](Cc2ccccc2)C(=O)N[C@@H](Cc2c[nH]c3ccccc23)C(=O)N(C)[C@@H](CCCCN)C(=O)N[C@@H](Cc2ccc(O)cc2)C(=O)N1)C(=O)O (H-DCFW[NMeK]YCV-OH; disulfide 2-7) , the value recorded as its Activity is 42

Given item `CC(C)[C@H](NC(=O)[C@@H]1CSSC[C@H](NC(=O)[C@H](C)N)C(=O)N[C@@H](Cc2ccccc2)C(=O)N[C@@H](Cc2c[nH]c3ccccc23)C(=O)N(C)[C@@H](CCCCN)C(=O)N[C@@H](Cc2ccc(O)cc2)C(=O)N1)C(=O)O` , the value recorded as its Activity is 22

Given item `CC(C)[C@H](NC(=O)[C@@H]1CSSC[C@H](NC(=O)[C@H](CC(=O)O)NC(=O)[C@@H]2CCCN2C(=O)[C@@H](NC(=O)[C@@H](N)CCC(=O)O)[C@@H](C)O)C(=O)N[C@@H](Cc2ccccc2)C(=O)N[C@@H](Cc2c[nH]c3ccccc23)C(=O)N[C@@H](CCCCN)C(=O)N(C)[C@@H](Cc2ccc(O)cc2)C(=O)N1)C(=O)O` , the value recorded as its Activity is 71

Given item `CC(C)[C@H](NC(=O)[C@@H]1CSSC[C@H](NC(=O)[C@H](CC(=O)O)NC(=O)[C@@H]2CCCN2C(=O)[C@@H](NC(=O)[C@@H](N)CCC(=O)O)[C@@H](C)O)C(=O)N[C@@H](Cc2ccccc2)C(=O)N[C@@H](Cc2c[nH]c3ccccc23)C(=O)N(C)[C@@H](CCCCN)C(=O)N[C@@H](Cc2ccc(O)cc2)C(=O)N1)C(=O)O` , the value recorded as its Activity is 72

I: CC(C)[C@H](NC(=O)[C@@H]1CSSC[C@H](NC(=O)[C@H](C)N)C(=O)N(C)[C@@H](Cc2ccccc2)C(=O)N[C@@H](Cc2c[nH]c3ccccc23)C(=O)N[C@@H](CCCCN)C(=O)N[C@@H](Cc2ccc(O)cc2)C(=O)N1)C(=O)O
II: CC(C)[C@H](NC(=O)[C@@H]1CSSC[C@H](NC(=O)[C@H](C)N)C(=O)N[C@@H](Cc2ccccc2)C(=O)N[C@@H](Cc2c[nH]c3ccccc23)C(=O)N[C@@H](CCCCN)C(=O)N(C)[C@@H](Cc2ccc(O)cc2)C(=O)N1)C(=O)O
Between I and II , which one shows the larger Activity value? Selection: enter the item's label. I
(I: 51%, II: 16%)
